Target: T1, recombinant human CD123-Fc (human, UniProt P26951 19-305)
T1 construct: not shown: Fc part of CD123-Fc
T1 sequence: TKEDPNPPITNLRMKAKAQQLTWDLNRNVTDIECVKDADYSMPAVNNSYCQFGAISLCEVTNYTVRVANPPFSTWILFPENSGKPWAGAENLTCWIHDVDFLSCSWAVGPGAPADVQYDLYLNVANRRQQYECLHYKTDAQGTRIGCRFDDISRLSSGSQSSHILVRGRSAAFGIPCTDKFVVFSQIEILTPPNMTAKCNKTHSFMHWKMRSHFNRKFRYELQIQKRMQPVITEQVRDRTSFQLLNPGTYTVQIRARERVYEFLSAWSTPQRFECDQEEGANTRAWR
Test: phage ELISA, captured CD123-Fc
experimental readout: ELISA_avg (ratio A450 target/IgG1-Fc)

# binder, recorded measurement
data = [
    ("SEQ ID NO: 479 (designed binder, D domain, on phage) MGSWWEFKEDLAEIKWFLEALGGSEAELAWFEHDIAKFEFELQYYKGKGNPEVEALRKEAAAIRDELQAYRHN", 5.1),
    ("SEQ ID NO: 530 (designed binder, D domain, on phage) MGSWSWFQWDLAGIKDHLEALGGSEAELAEFESEIAYFEDELQWYKGKGNPEVEALRKEAAAIRDELQAYRHN", 12.9),
    ("SEQ ID NO: 469 (designed binder, D domain, on phage) MGSWEEFKEDLAEIKVWLEALGGSEAELAWFEMGIADFEDGLQFYKGKGNPEVEALRKEAAAIRDELQAYRHN", 4.3),
]

All figures here come from patent US20230125550A1.
